Target: PGL-3 condensates (Caenorhabditis elegans, UniProt G5EBV6)
Sequence (G5EBV6 whole entry): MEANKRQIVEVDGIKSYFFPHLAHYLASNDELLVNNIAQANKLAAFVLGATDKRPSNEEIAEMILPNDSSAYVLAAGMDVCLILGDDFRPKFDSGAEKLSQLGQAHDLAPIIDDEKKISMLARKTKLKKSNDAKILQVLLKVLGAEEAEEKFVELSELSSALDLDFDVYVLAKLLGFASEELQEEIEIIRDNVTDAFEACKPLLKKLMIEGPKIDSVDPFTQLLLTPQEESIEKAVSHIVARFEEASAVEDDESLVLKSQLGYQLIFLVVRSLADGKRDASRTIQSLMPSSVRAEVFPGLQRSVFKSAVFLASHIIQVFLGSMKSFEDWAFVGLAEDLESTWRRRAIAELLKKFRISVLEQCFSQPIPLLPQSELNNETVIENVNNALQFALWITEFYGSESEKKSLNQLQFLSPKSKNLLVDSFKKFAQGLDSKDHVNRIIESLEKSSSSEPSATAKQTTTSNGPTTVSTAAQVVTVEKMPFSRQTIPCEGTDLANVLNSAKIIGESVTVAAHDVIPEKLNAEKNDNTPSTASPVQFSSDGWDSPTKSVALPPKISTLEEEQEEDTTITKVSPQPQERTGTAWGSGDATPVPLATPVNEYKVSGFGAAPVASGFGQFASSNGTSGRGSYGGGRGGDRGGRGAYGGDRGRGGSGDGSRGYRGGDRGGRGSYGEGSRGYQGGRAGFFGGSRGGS
Assay: Fluorescence imaging of dye partitioning in PGL-3 condensates (I-in, I-out)
Assay type: physicochemical
Conditions: outside PGL-3 condensate; 10 μM dye, 5 μM protein; image 2; one day of experiments
endpointLabel: Intensity Outside with Dye 2

Past entries and their recorded results:
- compound: "O=C(O)c1cc2cc3c4c(c2oc1=O)CCCN4CCC3 [Dye 3, Coumarin 343]"
  Intensity Outside with Dye 2: 1407.6
- compound: "CC(=O)N[C@H]1[C@H](Oc2ccc3c(c2)Oc2cc(O)ccc2C32OC(=O)c3ccccc32)O[C@H](CO)[C@H](O)[C@@H]1O (stereo partly shown) [Dye 5]"
  Intensity Outside with Dye 2: 1386.2
- compound: "COC(=O)c1ccccc1-c1c2ccc(=N)cc-2oc2cc(N)ccc12.Cl [Dye 14, Rhodamine 123]"
  Intensity Outside with Dye 2: 2616.4
- compound: "O=c1cc(C(F)(F)F)c2ccc(O)cc2o1 [Dye 2, 7-Hydroxy-4-(trifluoromethyl)-coumarin]"
  Intensity Outside with Dye 2: 258.0

[P] O=C(CCCC[C@@H]1SCC2NC(=O)NC21)NCCNC(=O)c1ccc(-c2c3ccc(=O)cc-3oc3ccc(O)cc23)c(C(=O)O)c1 (stereo partly shown) [Dye 13, Biotin-4-Fluorescein]
[Q] CC(=O)Oc1ccc2c(c1)Oc1cc(OC(C)=O)ccc1C21OC(=O)c2ccccc21 [Dye 9, Fluorescein diacetate]
[R] N=C(N)c1ccc(-c2cc3ccc(C(=N)N)cc3[nH]2)cc1 [Dye 1, DAPI]
**Query** hey, can you rank those compounds up there by Intensity Outside with Dye 2? biggest number first please As an answer, provide the labels arranged in the order called for.
**Result** P, Q, R
(P: 2905.7, Q: 264.9, R: 168.4)

---

Biological target: FUS-SNAP condensates (Homo sapiens)
Sequence (P35637 whole entry): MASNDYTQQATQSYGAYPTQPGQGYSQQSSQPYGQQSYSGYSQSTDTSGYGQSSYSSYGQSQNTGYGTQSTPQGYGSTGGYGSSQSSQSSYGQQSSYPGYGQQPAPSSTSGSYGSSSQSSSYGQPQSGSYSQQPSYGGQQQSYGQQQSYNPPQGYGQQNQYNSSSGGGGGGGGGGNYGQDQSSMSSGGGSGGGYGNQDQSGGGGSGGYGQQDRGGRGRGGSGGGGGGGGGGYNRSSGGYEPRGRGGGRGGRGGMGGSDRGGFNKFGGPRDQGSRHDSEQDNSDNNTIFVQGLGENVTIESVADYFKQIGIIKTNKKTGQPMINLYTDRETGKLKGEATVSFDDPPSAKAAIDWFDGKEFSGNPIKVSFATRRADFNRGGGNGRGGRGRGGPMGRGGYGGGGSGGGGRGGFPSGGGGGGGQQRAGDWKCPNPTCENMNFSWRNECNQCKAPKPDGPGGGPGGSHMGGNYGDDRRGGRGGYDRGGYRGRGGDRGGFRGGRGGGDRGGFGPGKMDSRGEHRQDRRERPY
Experiment: Fluorescence imaging of dye partitioning in FUS-SNAP condensates (I-in, I-out)
Type: physicochemical
Conditions: outside FUS-SNAP condensate; background corrected; one day of experiments
endpointLabel: Intensity Outside (Dye-No Dye)

- molecule: "O=C(O)c1cc2cc3c4c(c2oc1=O)CCCN4CCC3 [Dye 3, Coumarin 343]"
  reported: 1378.3

[I] CC(=O)N[C@H]1[C@H](Oc2ccc3c(c2)Oc2cc(O)ccc2C32OC(=O)c3ccccc32)O[C@H](CO)[C@H](O)[C@@H]1O (stereo partly drawn) [Dye 5]
[II] O=C(CCCC[C@@H]1SCC2NC(=O)NC21)NCCNC(=O)c1ccc(-c2c3ccc(=O)cc-3oc3ccc(O)cc23)c(C(=O)O)c1 (stereo partly drawn) [Dye 13, Biotin-4-Fluorescein]
**Query** Sorting ascending by Intensity Outside (Dye-No Dye), which comes first: I or II ? Kindly state the label of the option you pick.
**Result** I
(I: 1132.4, II: 2138.2)

---

Molecular target: PGL-3 condensates (Caenorhabditis elegans, UniProt G5EBV6)
Experiment: Fluorescence imaging of dye partitioning in PGL-3 condensates (I-in, I-out)
Type: physicochemical
Details: I-in:I-out; average of two days; 10 μM dye
endpointLabel: Ratio of intensity inside:outside PGL-3 Condensates Average

- compound: "CC(=O)c1cc2cc3c4c(c2oc1=O)CCCN4CCC3"
  testTarget: "PGL-3 condensates (Caenorhabditis elegans, UniProt G5EBV6)"
  reported: 1.3
- compound: "COC(=O)c1ccccc1-c1c2ccc(=N)cc-2oc2cc(N)ccc12.Cl"
  testTarget: "PGL-3 condensates (Caenorhabditis elegans, UniProt G5EBV6)"
  reported: 1.1
- compound: "O=C1OC2(c3ccc(O)cc3Oc3cc(O)ccc32)c2ccccc21"
  testTarget: "PGL-3 condensates (Caenorhabditis elegans, UniProt G5EBV6)"
  reported: 1.0
- compound: "O=C(CCCC[C@@H]1SCC2NC(=O)NC21)NCCNC(=O)c1ccc(-c2c3ccc(=O)cc-3oc3ccc(O)cc23)c(C(=O)O)c1 (stereo partly shown)"
  testTarget: "PGL-3 condensates (Caenorhabditis elegans, UniProt G5EBV6)"
  reported: 1.1
- compound: "O=c1cc(C(F)(F)F)c2ccc(O)cc2o1 [Dye 2, 7-Hydroxy-4-(trifluoromethyl)-coumarin]"
  testTarget: "PGL-3 condensates (Caenorhabditis elegans, UniProt G5EBV6)"
  reported: 1.1
- compound: "CCN(CC)c1ccc2c(-c3ccccc3C(=O)O)c3ccc(=[N+](CC)CC)cc-3oc2c1"
  testTarget: "PGL-3 condensates (Caenorhabditis elegans, UniProt G5EBV6)"
  reported: 1.4
- compound: "CC(=O)N[C@H]1[C@H](Oc2ccc3c(c2)Oc2cc(O)ccc2C32OC(=O)c3ccccc32)O[C@H](CO)[C@H](O)[C@@H]1O (stereo partly shown)"
  testTarget: "PGL-3 condensates (Caenorhabditis elegans, UniProt G5EBV6)"
  reported: 1.1
